Details: in water, 278.15 K
property-measured: solubility (mole fraction)
// return just the number, without any unit appended

## Task Entry under review: COC(=O)C1=C(C)NC(C)=C(C(=O)OCC(C)C)C1c1ccccc1[N+](=O)[O-] (stereo unspecified) . Reported solubility (mole fraction)?
## Result 3.79e-06

----------
Details: in ethyl acetate, 288.15 K
property-measured: solubility (mole fraction)
// return just the number, without any unit appended

## Task Entry under review: COC(=O)C1=C(C)NC(C)=C(C(=O)OCC(C)C)C1c1ccccc1[N+](=O)[O-] (stereo unspecified) . Reported solubility (mole fraction)?
## Result 0.0214

----------
Conditions: in isopropanol, 303.15 K
property-measured: solubility (mole fraction)

## Task Entry under review: COC(=O)C1=C(C)NC(C)=C(C(=O)OCC(C)C)C1c1ccccc1[N+](=O)[O-] (stereo unspecified) . Reported solubility (mole fraction)?
## Result 0.0111
